test_system: T1, hCD47-ECD/Fc protein (Sinobiological) (human, UniProt Q08722 19-139, biotinylated in the Octet assay, sites not stated)
T1 construct: extracellular domain; Bought protein; also called human CD47-Fc antigen; recombinant hCD47-ECD/Fc; not shown: Fc part of the bought fusion protein
T1 sequence (Q08722 19-139 limits assumed): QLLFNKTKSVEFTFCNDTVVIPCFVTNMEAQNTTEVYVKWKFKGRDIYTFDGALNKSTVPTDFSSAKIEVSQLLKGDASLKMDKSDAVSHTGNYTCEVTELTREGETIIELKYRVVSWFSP
measurement_protocol: ELISA, coated hCD47-ECD/Fc
Listed here are binders together with their documented EC50.
Give the value in nM but do not write nM after it.

Known EC50 results, listed for orientation:
>  <binder>
TY25036 (antibody, V domains shown) VH: QVQLVQSGAEVKKPGSSVKVSCKASGYTFTGYAIHWVRQAPGQGLEWIGWISPSSGSTKYAQKFQGRVTITADKSTSTAYMELSSLRSEDTAVYYCARYGYGPVFDYWGQGTLVTVSS VL: DIQLTQSPSSLSASVGDRVTITCSASSSVTYIYWYQQKPGKAPKLLIYDASNRATGIPSRFSGSGSGTDFTLTISSLQPEDFATYYCQQYTSSPRGFTFGQGTKVEIKR

>  <unit_label>
nM

>  <EC50>
1.71

$$$$
>  <binder>
TY25030 (antibody, V domains shown) VH: EVQLVESGGGLVQPGGSLRLSCAASGYSITSGYYWSWIRQAPGKGLEWIGEIYHSGNTYYNPSLKSRVTISRDNSKNTLYLQLNSLRAEDTAVYYCARRVPLGAFDYWGQGTLVTVSS VL: DIQLTQSPSSLSASVGDRVTITCRASQTVISRYLAWYQQKPGKAPKLLIYDASNLETGVPSRFSGSGSGTDFTLTISSLQPEDFATYYCQQYYAWPLTFGQGTKVEIKR

>  <unit_label>
nM

>  <EC50>
2.42

$$$$

What the record says about TY25040 (antibody, V domains shown) VH: QVQLVQSGAEVKKPGSSVKVSCKASGFTFSDYGIHWVRQAPGQGLEWIGRIYPSGGSTNYAQKFQGRVTITADKSTSTAYMELSSLRSEDTAVYYCARQRGYGRFAYWGQGTLVTVSS VL: DIQLTQSPSSLSASVGDRVTITCSASSSVGYVYWYQQKPGKAPKLLIYDASSLESGVPSRFSGSGSGTDFTLTISSLQPEDFATYFCQQYTYAPFTFGQGTKVEIKR : EC50 is 0.46

// data source = patent US20240417463A1
